system: VCaP; assay: Antiproliferative activity against AR-positive human VCaP cells assessed as cell viability at 40 uM measured after 72 hrs by resazurin dye based fluorescence assay relative to control; assay type: functional; conditions: read-out: Activity
Listing of entries alongside the reported viability at 40 µM.
quantity-kind: viability at 40 µM (%)

INSERT INTO measurements (compound_string, quantity_kind, bound_operator, assay_value) VALUES
  ('C[C@@H](O)[C@@]12Cc3c(CO)cnn3C[C@@H]1C[C@H]1[C@@H]3CC=C4C[C@@H](O)CC[C@]4(C)[C@H]3CC[C@@]12C', 'viability at 40 µM', '=', 96.7),
  ('COC(=O)c1nn2c(c1C(=O)OC)C[C@]1(C(C)=O)[C@@H](C[C@H]3[C@@H]4CC=C5C[C@@H](O)CC[C@]5(C)[C@H]4CC[C@@]31C)[C@H]2Cc1ccccc1', 'viability at 40 µM', '=', 57),
  ('C[C@@H](O)[C@@]12Cc3c(CO)c(CO)nn3[C@H](Cc3ccccc3)[C@@H]1C[C@H]1[C@@H]3CC=C4C[C@@H](O)CC[C@]4(C)[C@H]3CC[C@@]12C', 'viability at 40 µM', '=', 43),
  ('COC(=O)c1cnn2c1C[C@]1(C(C)=O)[C@@H](C[C@H]3[C@@H]4CC=C5C[C@@H](OC(C)=O)CC[C@]5(C)[C@H]4CC[C@@]31C)C2', 'viability at 40 µM', '=', 84.9),
  ('C[C@@H](O)[C@@]12Cc3c(CO)c(CO)nn3C[C@@H]1C[C@H]1[C@@H]3CC=C4C[C@@H](O)CC[C@]4(C)[C@H]3CC[C@@]12C', 'viability at 40 µM', '=', 96.3),
  ('COC(=O)c1nn2c(c1C(=O)OC)C[C@]1(C(C)=O)[C@@H](C[C@H]3[C@@H]4CC=C5C[C@@H](O)CC[C@]5(C)[C@H]4CC[C@@]31C)C2', 'viability at 40 µM', '>', 100),
  ('COC(=O)c1cnn2c1C[C@]1(C(C)=O)[C@@H](C[C@H]3[C@@H]4CC=C5C[C@@H](O)CC[C@]5(C)[C@H]4CC[C@@]31C)C2', 'viability at 40 µM', '=', 90.4),
  ('CC(=O)[C@@]12Cc3c(C(=O)O)cnn3C[C@@H]1C[C@H]1[C@@H]3CCC4=CC(=O)CC[C@]4(C)[C@H]3CC[C@@]12C', 'viability at 40 µM', '=', 95.7);

Sourced from ChEMBL document CHEMBL4364252
